I'd be grateful if you could share measured pKd for these entries.
Target: T1, SHIP SH2 domain from SHIP-1, recombinant human (human, UniProt Q92835 5-101)
T1 construct: SH2 domain of the inositol phosphatase SHIP-1, human; source: recombinant, produced in-house and purified on the day of the experiment
T1 sequence (looked up): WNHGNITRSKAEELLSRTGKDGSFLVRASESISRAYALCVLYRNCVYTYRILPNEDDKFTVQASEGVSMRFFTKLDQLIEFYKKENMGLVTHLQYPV
Assay: SPR; BIAcore 3000; biotinylated phosphopeptides immobilised on a streptavidin-coated CM5 chip (~30 RU), purified recombinant protein passed over; 37°; 10 mM HEPES pH 7·4, 150 mM KCl, 10 mM EDTA, 0·005% Tween 20; equilibrium data, one-site binding curve
Conditions: both partners purified
Square brackets hold non-standard residues; d marks the D form. Ends that are not written are not given here. * marks the point of attachment. Biotin = O=C1N[C@H]2[C@H](CS[C@H]2CCCCC(=O)*)N1; pY = N[C@@H](Cc1ccc(OP(=O)(O)O)cc1)C(=O)O
One number for each entry, as −log10 of the molar value.

# per-item lookup of pKd; items listed below
1. Biotin-EFLTI[pY]EDVKD (CD244 (2B4, SLAMF4), human, ITSM1; source: synthetic peptide; bought: Peptide Protein Research Ltd) [CD244-ITSM1 phosphopeptide]
2. Biotin-GGSTI[pY]SMIQS (CD244 (2B4, SLAMF4), human, ITSM2; source: synthetic peptide; bought: Peptide Protein Research Ltd) [CD244-ITSM2 phosphopeptide]
3. Biotin-ADKVGAENTIT[pY]SLLMHPDA (FcγRIIb, human, ITIM; source: synthetic peptide; bought: Peptide Protein Research Ltd) [FcγRIIb-ITIM phosphopeptide]

Result:
[4.60, 5.62, 6.44]
